Test system: genotype 1b (Con1) dicistronic subgenomic replicon
procedureSummary: Transient replicon assay, genotype 1b
Format: cell-based, HCV
testConditions: Hepatitis C virus, Huh-7, 96 h; Huh7-Lunet cells transfected with replicon RNA, cultured 4 days, luciferase activity
readoutName: EC50 (nM)
I only need the number, in nM, no unit after it.

Look over these answered cases.
CS(=O)(=O)NCc1csc2c1S(=O)(=O)N=C(C1=C(O)C3C4C5C6C4C4C6C5C4C3N(Cc3ccc(F)cc3)C1=O)N2 (racemic) = 13
CS(=O)(=O)Nc1ccc2c(c1)S(=O)(=O)N=C(C1=C(O)[C@@H]3CCC[C@@H]3N(Cc3ccc(F)cc3)C1=O)N2 [Example 17, reference compound] = 18
CS(=O)(=O)Nc1ccc2c(c1)S(=O)(=O)N=C(C1=C(O)[C@@H]3C4C5CC6C4C6C5[C@@H]3N(Cc3ccc(F)cc3)C1=O)N2 (mixture of isomers) = 4

# context switch: different compound, same EC50
// query Query (compound): CS(=O)(=O)NCc1csc2c1S(=O)(=O)N=C(C1=C(O)[C@@H]3C4C5CC6C4C6C5[C@@H]3N(Cc3ccc(F)cc3)C1=O)N2 (mixture of isomers) ; field requested: EC50
// result 5
